Reported values of binding signal for individual entries
molecular target: d-enCas12a (Acidaminococcus sp., UniProt U2UMQ6 1-1307, E174R;S542R;K548R;D908A;E993A;D1235A); assay: Spec-seq (native PAGE EMSA with sequencing of bound and unbound); 25 mM Tris-HCl pH 7.4, 150 mM KCl, 5 mM MgCl2, 10% glycerol, 1 mM DTT, 40 ng/uL salmon sperm DNA; 400 nM Cas12a, 480 nM crRNA, 50 nM library, 37 C 1 h; native PAGE at room temperature; high values mean tight binding; settings: protein: recombinant;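 also: relative affinity from the bound to unbound sequence frequency ratio in Spec-seq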
API: value field is a number in lnKA; no unit string.

Check out these entries, answers already filled in.
Prompt line: binding signal for TGGT (dsDNA) DNA 1: GCTATCTAGTGCTCAGTACGCACTGTGGTAGGAAACTTCTGGCAGGACCAGGTCATGAGATCGGAAGAGCACACGTCTGAACTCCAGTCA DNA 2: TGACTGGAGTTCAGACGTGTGCTCTTCCGATCTCATGACCTGGTCCTGCCAGAAGTTTCCTACCACAGTGCGTACTGAGCACTAGATAGC RNA: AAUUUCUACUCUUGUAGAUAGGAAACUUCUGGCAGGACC ?
Response line: -5.72

Prompt line: binding signal for GCAT (dsDNA) DNA 1: GCTATCTAGTGCTCAGTACGCACTGGCATAGGAAACTTCTGGCAGGACCAGGTCATGAGATCGGAAGAGCACACGTCTGAACTCCAGTCA DNA 2: TGACTGGAGTTCAGACGTGTGCTCTTCCGATCTCATGACCTGGTCCTGCCAGAAGTTTCCTATGCCAGTGCGTACTGAGCACTAGATAGC RNA: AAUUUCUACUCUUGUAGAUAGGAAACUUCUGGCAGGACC ?
Response line: -5.86

Prompt line: binding signal for TAGT (dsDNA) DNA 1: GCTATCTAGTGCTCAGTACGCACTGTAGTAGGAAACTTCTGGCAGGACCAGGTCATGAGATCGGAAGAGCACACGTCTGAACTCCAGTCA DNA 2: TGACTGGAGTTCAGACGTGTGCTCTTCCGATCTCATGACCTGGTCCTGCCAGAAGTTTCCTACTACAGTGCGTACTGAGCACTAGATAGC RNA: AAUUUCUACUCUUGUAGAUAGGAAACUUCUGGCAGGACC ?
Response line: -5.67

Prompt line: binding signal for CGTG (dsDNA) DNA 1: GCTATCTAGTGCTCAGTACGCACTGCGTGAGGAAACTTCTGGCAGGACCAGGTCATGAGATCGGAAGAGCACACGTCTGAACTCCAGTCA DNA 2: TGACTGGAGTTCAGACGTGTGCTCTTCCGATCTCATGACCTGGTCCTGCCAGAAGTTTCCTCACGCAGTGCGTACTGAGCACTAGATAGC RNA: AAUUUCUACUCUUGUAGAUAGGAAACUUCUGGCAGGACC ?
Response line: -4.4

Prompt line: binding signal for TCGA (dsDNA) DNA 1: GCTATCTAGTGCTCAGTACGCACTGTCGAAGGAAACTTCTGGCAGGACCAGGTCATGAGATCGGAAGAGCACACGTCTGAACTCCAGTCA DNA 2: TGACTGGAGTTCAGACGTGTGCTCTTCCGATCTCATGACCTGGTCCTGCCAGAAGTTTCCTTCGACAGTGCGTACTGAGCACTAGATAGC RNA: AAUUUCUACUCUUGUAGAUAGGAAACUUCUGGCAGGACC ?
Response line: -5.86

Prompt line: binding signal for CCTT (dsDNA) DNA 1: GCTATCTAGTGCTCAGTACGCACTGCCTTAGGAAACTTCTGGCAGGACCAGGTCATGAGATCGGAAGAGCACACGTCTGAACTCCAGTCA DNA 2: TGACTGGAGTTCAGACGTGTGCTCTTCCGATCTCATGACCTGGTCCTGCCAGAAGTTTCCTAAGGCAGTGCGTACTGAGCACTAGATAGC RNA: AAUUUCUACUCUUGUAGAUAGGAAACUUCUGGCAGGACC ?
Response line: -5.69

Prompt line: binding signal for CGTC (dsDNA) DNA 1: GCTATCTAGTGCTCAGTACGCACTGCGTCAGGAAACTTCTGGCAGGACCAGGTCATGAGATCGGAAGAGCACACGTCTGAACTCCAGTCA DNA 2: TGACTGGAGTTCAGACGTGTGCTCTTCCGATCTCATGACCTGGTCCTGCCAGAAGTTTCCTGACGCAGTGCGTACTGAGCACTAGATAGC RNA: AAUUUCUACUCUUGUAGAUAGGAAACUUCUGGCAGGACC ?
Response line: -2.67

Prompt line: binding signal for CACC (dsDNA) DNA 1: GCTATCTAGTGCTCAGTACGCACTGCACCAGGAAACTTCTGGCAGGACCAGGTCATGAGATCGGAAGAGCACACGTCTGAACTCCAGTCA DNA 2: TGACTGGAGTTCAGACGTGTGCTCTTCCGATCTCATGACCTGGTCCTGCCAGAAGTTTCCTGGTGCAGTGCGTACTGAGCACTAGATAGC RNA: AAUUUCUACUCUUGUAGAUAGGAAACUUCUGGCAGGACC ?
Response line: -1.94

---
Prompt line: binding signal for AGCC (dsDNA) DNA 1: GCTATCTAGTGCTCAGTACGCACTGAGCCAGGAAACTTCTGGCAGGACCAGGTCATGAGATCGGAAGAGCACACGTCTGAACTCCAGTCA DNA 2: TGACTGGAGTTCAGACGTGTGCTCTTCCGATCTCATGACCTGGTCCTGCCAGAAGTTTCCTGGCTCAGTGCGTACTGAGCACTAGATAGC RNA: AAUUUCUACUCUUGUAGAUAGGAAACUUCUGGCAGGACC ?
Response line: -2.31

Prompt line: binding signal for GGGC (dsDNA) DNA 1: GCTATCTAGTGCTCAGTACGCACTGGGGCAGGAAACTTCTGGCAGGACCAGGTCATGAGATCGGAAGAGCACACGTCTGAACTCCAGTCA DNA 2: TGACTGGAGTTCAGACGTGTGCTCTTCCGATCTCATGACCTGGTCCTGCCAGAAGTTTCCTGCCCCAGTGCGTACTGAGCACTAGATAGC RNA: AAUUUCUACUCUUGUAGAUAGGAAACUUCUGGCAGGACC ?
Response line: -5.93
